Data provenance is PubChem BioAssay.

- measurement-notes: JC-1 mitochondrial signal, unstimulated adipocytes – cell-based, JC-1 fluorescence, 3T3-L1 adipocytes, 24 h, 100 nL compound, profiling panel (AID 1168); note: test concentration not given here
- condition-notes: JC-1 mitochondrial fluorescence, higher = more signal, called active from +8 up or from −8 down
The reader will find reported z-score values listed item by item below.
In your answer, state the number alone without any accompanying words.

Please review the entries below; each comes with its answer.
* COc1cc(C(O)C2C=CC3C(=O)N(C)C(=O)C3N2Nc2ccccc2)cc(OC)c1OC (centres undefined) | -0.604
* Cc1ccc(NN2C(C(O)c3c(F)cccc3Cl)C=CC3C(=O)N(C4CCCCC4)C(=O)C32)cc1 (centres undefined) | 0.165
* C=CCN1C(=O)[C@]2(CCC(=O)OC(C)(C)C)N=C(c3ccc(OCCCO)cc3)O[C@@H]2c2ccccc21 | 4.11

Report z-score for COC(=O)[C@@]1(Cc2ccccc2)[C@H]2c3cc(C(=O)N(C)C)n(Cc4ccc(C)o4)c3C[C@H]2CN1C(=O)c1ccccc1 please.
-2.61

Then [N-]=[N+]=Nc1ccccc1C[C@@]1(C(N)=O)N=C(c2ccc(OCCCO)cc2)O[C@@H]1c1ccccc1N=[N+]=[N-] ?
-1.35

Then O=C1CS(=O)(=O)C(c2cccc([N+](=O)[O-])c2)N1c1ccccc1 (centres undefined) ?
-0.662

* * *

The reader will find reported z-score values listed item by item below.
- measured-target: NADPH oxidase 4 (Homo sapiens)
- measurement-notes: compounds shifting NOX4 Amplex Red fluorescence – cell-based, HEK293-NOX4, tetracycline-induced, NOX inhibitor project, primary screen (AID 1160)
- condition-notes: HEK293-NOX4, Amplex Red H2O2 fluorescence, 45 min; higher = more signal, called active from +8 up or from −8 down
In your answer, state the number alone without any accompanying words.

Please review the entries below; each comes with its answer.
- C=C(COC)/C(=C/C[C@H](OC(=O)c1ccncc1)c1ccccc1OCCO)c1cc(C(=O)OC)ccc1OC: 0.0788
- CC(C)=C1C(=O)C(c2ccccc2)=C2CN3C(=O)N(CCc4ccccc4)C(=O)[C@]3(Cc3ccc(C(F)(F)F)cc3)[C@H]21: -1.21
- C[C@@H]1NC(=O)[C@@H](Cc2ccccc2)NC(=O)[C@@]23C(=O)N[C@@H](Cc4ccccc4)C2[C@H](C)[C@@]2(C)O[C@H]2C3/C=C/C/C=C\CNC1=O (stereo not given in full): -0.614
- CCCCN1CC=CC23O[C@@H]4/C=C\CCC(C)OC(=O)C4[C@H]2C(=O)N(CCCO)[C@@H]3C1=O (stereo not given in full): -1.84

# input for lookup
Report z-score for O=C1C2C=CC(C(O)c3ccco3)N(Nc3ccccc3F)C2C(=O)N1c1ccccc1 (stereo not given) please.
0.251

* * *

- measured-target: Torsin-1A-interacting protein 1 (Homo sapiens) (UniProt Q5JTV8)
- Sequence (Q5JTV8 whole entry, looked up): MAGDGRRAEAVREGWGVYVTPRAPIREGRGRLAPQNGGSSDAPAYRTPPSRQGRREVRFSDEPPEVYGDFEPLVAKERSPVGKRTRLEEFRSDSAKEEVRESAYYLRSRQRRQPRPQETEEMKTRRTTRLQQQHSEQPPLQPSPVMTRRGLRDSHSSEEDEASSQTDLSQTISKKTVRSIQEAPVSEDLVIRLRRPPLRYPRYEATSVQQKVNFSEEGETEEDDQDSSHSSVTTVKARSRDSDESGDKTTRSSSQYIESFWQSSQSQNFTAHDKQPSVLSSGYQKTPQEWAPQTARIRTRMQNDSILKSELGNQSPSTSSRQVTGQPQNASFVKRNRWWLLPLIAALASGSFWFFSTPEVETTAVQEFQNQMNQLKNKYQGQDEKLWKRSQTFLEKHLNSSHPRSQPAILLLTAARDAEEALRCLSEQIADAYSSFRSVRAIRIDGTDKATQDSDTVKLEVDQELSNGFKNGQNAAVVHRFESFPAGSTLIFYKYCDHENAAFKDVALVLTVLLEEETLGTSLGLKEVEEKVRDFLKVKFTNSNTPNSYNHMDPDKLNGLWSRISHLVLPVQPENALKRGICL
- measurement-notes: compound microarray binding of lysate hLAP1 – cell lysate, small-molecule microarray, COS7 lysate, 635/667 nm fluorescence, primary screen (AID 1116)
- condition-notes: 635 nm fluorescence, higher = more signal
reported-property: composite z-score
In your answer, state the number alone without any accompanying words.

Please review the entries below; each comes with its answer.
- CCCC=C(CCC)[C@@H](NC(=O)c1cccs1)c1ccc(C(=O)OC)cc1: 0.406
- C=CCNC(=O)[C@@H]1[C@H]2C(=O)O[C@H](c3ccccc3)[C@H](c3ccccc3)N2[C@H](c2ccccc2OCCO)[C@@]12C(=O)Nc1ccc(C#CCCO)cc12: 0.544
- COC(=O)[C@]1(CCS(=O)(=O)c2ccccc2)N=C(c2ccc(OCCCO)cc2)O[C@@H]1c1ccccc1N=[N+]=[N-]: 0.815
- CC(C)C(O)C1C=CC2C(=O)N(c3ccccc3)C(=O)C2N1Nc1ccccc1 (stereo not drawn): 1.1
- CO[C@H]1O[C@H](CO)[C@@H](OC(=O)Nc2ccc3c(c2)OCO3)[C@H](OC(=O)Nc2ccc3c(c2)OCO3)[C@@H]1OC(=O)Nc1ccc2c(c1)OCO2: 1.25

Report composite z-score for [N-]=[N+]=Nc1ccccc1C[C@]1(C(=O)NCC(O)CO)COC(c2ccc(OCCCO)cc2)=N1 (stereo partly drawn) please.
2.01

Then COc1cc(C(O)C2C=CC3C(=O)N(C)C(=O)C3N2Nc2ccccc2)cc(OC)c1OC (stereo not drawn) ?
1.3

Then COC(=O)[C@@]1(Cc2ccc(OC)cc2)[C@H]2c3cc(C(=O)N4CCCC4)n(CCc4c[nH]c5ccc(OC)cc45)c3C[C@H]2CN1C(=O)c1ccccc1 ?
2.19

Then Cc1ccc(S[C@]2(C(=O)NCCN3CCOCC3)CC(=O)N(Cc3ccccc3Cl)[C@@H]2c2ccc(CO)cc2I)cc1 ?
2.35

Then CC(C)C(CO)N1C(=O)[C@@H]2[C@H]3C(=O)OCC=C[C@H]3OC23C=CCN(c2ccc(Cl)cc2)C(=O)[C@@H]13 (stereo partly drawn) ?
-0.344

Then CCCC#C[Si](O[C@H](CC)c1cn([C@H](C)c2ccccc2)nn1)(C(C)C)C(C)C ?
1.54

Then CCOC(=O)C[C@H]1[C@H](OC(=O)c2ccccc2-c2ccccc2)[C@@H](NC(=O)c2ccc3ccccc3n2)c2cc(OCCCO)ccc2N1C(=O)Cc1ccc(OC)cc1 ?
0.781

Then COc1cccc(C)c1NC(=O)O[C@H]1[C@H](OC(=O)Nc2ccccc2-c2ccccc2)[C@H](OC(=O)Nc2ccccc2-c2ccccc2)[C@@H](OC)O[C@@H]1CO ?
1.26

* * *

The reader will find reported composite z-score values listed item by item below.
- measured-target: Left-right determination factor 2 (Homo sapiens)
- measurement-notes: small molecules binding LEFTY2 protein – biochemical, small-molecule microarray, 635 nm fluorescence scan, primary screen (AID 1110)
- condition-notes: higher = more signal
In your answer, state the number alone without any accompanying words.

Please review the entries below; each comes with its answer.
• COC(=O)C1=CC(CCCO)=CC(c2cccs2)N(C)C=C1C(=O)OC (stereo not drawn) = -0.876
• COCCOC(=O)N1C(=O)[C@@]2(c3cc(C#CC4=CCCCC4)ccc31)[C@H](c1ccccc1OCCO)N1[C@H](c3ccccc3)[C@H](c3ccccc3)OC(=O)[C@H]1[C@@H]2C(=O)NC[C@H](O)c1ccccc1 = 0.869
• COCCOC(=O)N1C(=O)[C@@]2(c3cc(C#CC4=CCCCC4)ccc31)[C@H](c1ccccc1OCCO)N1[C@H](c3ccccc3)[C@H](c3ccccc3)OC(=O)[C@H]1[C@@H]2C(=O)N1CCN(c2ncccn2)CC1 = 0.718

# input for lookup
Lab note: need composite z-score with Left-right determination factor 2 (Homo sapiens) for entry O=C1O[C@H](c2ccccc2)[C@H](c2ccccc2)N2[C@H]1[C@@H](C(=O)O)[C@]1(C(=O)Nc3ccc(C#CCCO)cc31)[C@H]2c1ccccc1OCCO , please look it up.
-0.587

* * *

- Tested on: Fibrinogen (Alexa647-labelled)
- measurement-notes: Alexa647-fibrinogen binding to printed small molecules – biochemical, small-molecule microarray, 635/667 nm fluorescence, artefact control for SMM control-protein annotation, profiling panel (AID 1131);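 note: z-score merges 667 nm fluorescence with per-spot signal-to-noise over triplicate slides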
- condition-notes: fibrinogen-A647 binding fluorescence, higher = more signal
Our labelling divides records by composite z-score into ranges: zone 1: < 0.03; zone 2: ≥ 0.03 and < 0.8; zone 3: ≥ 0.8

Consider the worked cases shown below.
• COCCOC(=O)N1C(=O)[C@@]2(c3ccccc31)[C@H](C(=O)NC[C@H](O)c1ccccc1)[C@H]1C(=O)O[C@H](c3ccccc3)[C@H](c3ccccc3)N1[C@@H]2c1ccc(O)cc1 = zone 3
• COCCOC(=O)N1C(=O)[C@@]2(c3cc(C#CC4(O)CCCCCC4)ccc31)[C@H](C(=O)N1CCc3cc(OC)c(OC)cc3C1)[C@H]1C(=O)O[C@H](c3ccccc3)[C@H](c3ccccc3)N1[C@@H]2c1ccc(OCCO)cc1 = zone 2
• COC(=O)C/C=C/C[C@]1(O)C(=O)N(C)c2ccccc21 = zone 1

Class for COc1ccc([Si](C)(C)[C@@H]2[C@@H](CC(=O)N3Cc4ccccc4C[C@H]3CO)O[C@]3(C(=O)N(Cc4ccc(N5C(=O)c6cccc7cccc5c67)cc4)c4ccccc43)[C@H]2C)cc1 ?
zone 2

* * *

- measured-target: NADPH oxidase 2 (Homo sapiens)
- measurement-notes: compounds shifting NOX2 Amplex Red fluorescence – cell-based, HEK293-NOX2, PMA-stimulated, NOX inhibitor project, primary screen (AID 1159); note: test concentration not given here
- condition-notes: 45 min, higher = more signal, called active from +8 up or from −8 down
# cutoff -0.4 applies to z-score; >= gives 1 (yes), < gives 0 (no)

Consider the worked cases shown below.
* C[N+](C)(C)CCCCCCNC(=O)[C@@H]1C[C@@H]2C(=O)N3CCC[C@H]3C(=O)N2[C@@H]1c1ccc(O)cc1 | 0 (no)
* C=CC[C@@]1(C(=O)NCCCOC)N=C(c2ccc(OCCCO)cc2)O[C@@H]1c1ccccc1N=[N+]=[N-] | 0 (no)
* NC(=O)NCC#Cc1ccc2c(c1)[C@]1(C(=O)N2)[C@H](c2ccccc2OCCO)N2[C@H](c3ccccc3)[C@H](c3ccccc3)OC(=O)[C@H]2[C@@H]1C(=O)NC[C@H](O)c1ccccc1 | 1 (yes)

z-score >= -0.4 for C=CCC(OC(C)=O)[C@@H]1[C@@H](N(Cc2cccc3ccccc23)C(=O)Cc2ccc(OC)cc2)c2cc(OCCCO)ccc2N1C(=O)c1ccc(-c2ccccc2)cc1 (some centres undefined) ?
0 (no)

Then Cc1ccc(S[C@]2(C(=O)NC(C)C)CC(=O)N(Cc3cc(C(F)(F)F)cc(C(F)(F)F)c3)[C@@H]2c2ccc(CO)cc2)cc1 ?
1 (yes)

Then COc1cc2c(cc1O)C(c1ccc(CN3CCCC3)cc1)N(Cc1cc3c(cc1Br)OCO3)CC2 (centres undefined) ?
0 (no)
